What Pb ODA (this manuscript) HepG2 cytoxicity was measured for each of the following?
System: HepG2 cells
Experiment: HepG2 cytotoxicity assay
Settings: HepG2 cytotoxicity listed with the Pb ODA data set (this manuscript)
Answers are plain numbers, in µM.

Worked cases, answers included:
molecule	unit	endpoint-value
COc1ccc2c(=O)c(Br)c(C)[nH]c2c1	µM	100.00
Cc1cccc2nc(-c3ccc(-c4ccc(CN5CC(C)OC(C)C5)cc4)cc3)[nH]c12.O=C(O)C(F)(F)F (stereo not drawn)	µM	15.14
CCCCCCCCCc1c(C)[nH]c2ccccc2c1=O	µM	67.61
COc1nc2c(CCN3CCC(NCc4ccc5c(c4)NCCO5)CC3)c(Cl)cnc2cc1F.Cl	µM	14.45
Cc1ccc(C2(CN3CCC(NC(=O)c4ccn[nH]4)CC3)CCCCC2)cc1	µM	43.15

Please turn your attention to the following entry.
Determine from records and report Pb ODA (this manuscript) HepG2 cytoxicity for "Cc1nc2nc(N)nc(N)c2c(C)c1Cc1ccc(N)cc1.Cl"
0.08
